# target_desc: T1, extracellular region of human PD-L1 protein (positions 19-238 of SEQ ID NO: 3) (human, UniProt Q9NZQ7 19-238)
# T1 construct: also called Human PD-L1-his; antigen PD-L1
# assay_comment: ForteBio Octet (BLI), antibody immobilized, PD-L1 ECD 6.25-200 nM; culture supernatant
assay_endpoint: koff

As a guide, the following entries are already answered.
Query :: Need koff, item murine antibody 18B4 (A4) (antibody, V domains shown, Mouse hybridoma antibody (subclone 18B4-2); Only variable domains printed; also called 18B4-2) VH: QVQLKQSGPELEKPGASVKISCKASGYSFTGYNMNWVKQSNGKSLEWIGNIDPYYGVTHYNQKFKGKATLTVDESSSTASMQLKSLTSEDSAIYYCARGIPFYGLDYWGQGTSVTVSS VL: QIVLTQSPAIMSASPGEKVTMTCGASSSVSFMHWYQQKSGTSPKRWIYDTSKLASGVPARFSGSGSGTSYSLTISSMEAEDAATYYCQQWNTNPFTFGSGTKLEIKR
Result :: 0.000662 s⁻¹

Query :: Need koff, item murine antibody 28B1 (A5), subclone 28B1-7 (antibody, V domains shown) VH: QVQLKQSGAELVKPGASVMLSCTASAFNIDDTYIHWVKQRPEQGLEWIGRIDPANGNTDYDPECQGKATITTDMSSNTAYLQLSSLTSEDTAVYFCARGLRLPGLVYWGRGTLVTVSA VL: DIQMTQTTSSLSASLGDRVTISCRASQDISNYLNWYQQKPDGTVKLLIYYTSILYSGVPSRFSGSGSGTDYSLTINTLEEEDIATYFCQQGNTLPWTFGGGTKLEIIR
Result :: < 1e-07 s⁻¹

For the next question, use this binder.
Query :: Need koff, item murine antibody 2E5 (A10) (antibody, V domains shown, Mouse hybridoma antibody (subclone 2E5-9); Only variable domains printed; also called 2E5-9) VH: QVQLKQSGPGLVAPSQSLSITCTVSGFSLTGYGVNWVRQPPGKGLEWLGKIWGDGITDYNSALKSRLSISKDNSKSQVFLKMNSLQTEDTARYYCARDVMDYWGQGTSVTVSS VL: DVLMTQIPLSLPVSLGDQASISCRSSQSIEQSNGNTYLEWYLQKPGQSPKVLIYKVSNRFSGVPDRFSGSGSGTDFTLKISRVESEDLGVYYCFQGSHVPYTFGGGTKLEIK
Result :: 5.61e-05 s⁻¹
